Provide the reported CYP1A1 mRNA fold induction over the vehicle-treated cells, LH45 of each item.
Test system: CYP1A1 mRNA in primary human hepatocytes
Procedure Summary: CYP1A1 mRNA expression in primary human hepatocytes
Format: cell-based
Condition Summary: hepatocyte culture LH45, 50 µM, 24 h
Give bare numbers, in fold.

- Molecule: "CC1OC(OCC2OC(Oc3cc4c(O)cc(O)cc4[o+]c3-c3ccc(O)cc3)C(O)C(O)C2O)C(O)C(O)C1O.[Cl-] (stereo not drawn) [PEL-2, pelargonidin-3-O-rutinoside chloride]"
  Number: 0.24
- Molecule: "C[C@@H]1O[C@@H](Oc2cc3c(O)cc(O)cc3[o+]c2-c2cc(O)c(O)c(O)c2)[C@H](O)[C@H](O)[C@H]1O.[Cl-] [DEL-5, delphinidin-3-O-rhamnoside chloride]"
  Number: 0.40
- Molecule: "COc1cc(-c2[o+]c3cc(O)cc(O)c3cc2O[C@@H]2O[C@H](CO)[C@H](O)[C@H](O)[C@H]2O)cc(OC)c1O.[Cl-] [MAL-3, malvidin-3-O-galactoside chloride]"
  Number: 0.28
- Molecule: "OC[C@H]1O[C@@H](Oc2cc3c(O)cc(O)cc3[o+]c2-c2cc(O)c(O)c(O)c2)[C@H](O)[C@@H](O)[C@@H]1O.[Cl-] [DEL-1, delphinidin-3-O-glucoside chloride]"
  Number: 1.50
- Molecule: "OC[C@H]1O[C@@H](Oc2cc3c(O)cc(O)cc3[o+]c2-c2cc(O)c(O)c(O)c2)[C@H](O[C@@H]2OC[C@@H](O)[C@H](O)[C@H]2O)[C@@H](O)[C@@H]1O.[Cl-] [DEL-4, delphinidin-3-O-sambubioside chloride]"
  Number: 0.34
- Molecule: "COc1cc(-c2[o+]c3cc(O)cc(O[C@@H]4O[C@H](CO)[C@@H](O)[C@H](O)[C@H]4O)c3cc2O[C@@H]2O[C@H](CO)[C@@H](O)[C@H](O)[C@H]2O)cc(OC)c1O.[Cl-] [MAL-2, malvidin-3,5-di-O-glucoside chloride]"
  Number: 0.44

Record CYP1A1 mRNA fold induction over the vehicle-treated cells, LH45 for all entries; do not skip any.
1. OCC1OC(Oc2cc3c(OC4OC(CO)C(O)C(O)C4O)cc(O)cc3[o+]c2-c2cc(O)c(O)c(O)c2)C(O)C(O)C1O.[Cl-] (stereo not drawn) [DEL-3, delphinidin-3,5-di-O-glucoside chloride]
2. COc1cc(-c2[o+]c3cc(O)cc(O)c3cc2O[C@@H]2O[C@H](CO)[C@@H](O)[C@H](O)[C@H]2O)ccc1O.[Cl-] [PEO-1, peonidin-3-O-glucoside chloride]
3. C[C@@H]1O[C@@H](OC[C@H]2O[C@@H](Oc3cc4c(O)cc(O)cc4[o+]c3-c3cc(O)c(O)c(O)c3)[C@H](O)[C@@H](O)[C@@H]2O)[C@H](O)[C@H](O)[C@H]1O.[Cl-] [DEL-2, delphinidin-3-O-rutinoside chloride]

1.70
0.80
0.53
